assay: Enrichment (partitioning from water to air in segmented flow), enrichment factor; type: physicochemical; conditions: calculated enrichment factor
MEASUREMENT_TYPE: EF (air/water)

[
  {
    "COMPOUND": "ClC(Cl)Br [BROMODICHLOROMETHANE]",
    "MEASUREMENT_TYPE": "EF (air/water)",
    "RESULT": 7.7
  },
  {
    "COMPOUND": "CC(Cl)(Cl)Cl [1,1,-TRICHLOROETHANE]",
    "MEASUREMENT_TYPE": "EF (air/water)",
    "RESULT": 6.8
  },
  {
    "COMPOUND": "CBr [METHYL BROMIDE]",
    "MEASUREMENT_TYPE": "EF (air/water)",
    "RESULT": 76
  },
  {
    "COMPOUND": "Cl/C=C\\CCl [c-1,3 DICHLOROPROPENE]",
    "MEASUREMENT_TYPE": "EF (air/water)",
    "RESULT": 3.6
  },
  {
    "COMPOUND": "ClCCl [METHYLENE CHLORIDE]",
    "MEASUREMENT_TYPE": "EF (air/water)",
    "RESULT": 8.2
  },
  {
    "COMPOUND": "ClC=C(Cl)Cl [TRICHLOROETHYLENE]",
    "MEASUREMENT_TYPE": "EF (air/water)",
    "RESULT": 9.9
  },
  {
    "COMPOUND": "CC(Cl)CCl (centres unmarked) [1,2-DICHLOROPROPANE]",
    "MEASUREMENT_TYPE": "EF (air/water)",
    "RESULT": 7.7
  },
  {
    "COMPOUND": "Clc1ccccc1Cl [1,2-DICHLOROBENZENE]",
    "MEASUREMENT_TYPE": "EF (air/water)",
    "RESULT": 1.7
  },
  {
    "COMPOUND": "CC(Cl)Cl [1,1-DICHLOROETHANE]",
    "MEASUREMENT_TYPE": "EF (air/water)",
    "RESULT": 6.7
  },
  {
    "COMPOUND": "ClC(Br)Br [CHLORODIBROMOMETHANE]",
    "MEASUREMENT_TYPE": "EF (air/water)",
    "RESULT": 3.7
  },
  {
    "COMPOUND": "Cl/C=C/CCl [t-1,3-DICHLOROPROPENE]",
    "MEASUREMENT_TYPE": "EF (air/water)",
    "RESULT": 7.2
  },
  {
    "COMPOUND": "ClC(Cl)C(Cl)Cl [1,1,2,2-TETRACHLOROETHANE]",
    "MEASUREMENT_TYPE": "EF (air/water)",
    "RESULT": 2.0
  },
  {
    "COMPOUND": "ClC(Cl)=C(Cl)Cl [PERCHLOROETHYLENE]",
    "MEASUREMENT_TYPE": "EF (air/water)",
    "RESULT": 4.8
  },
  {
    "COMPOUND": "ClC(Cl)Cl [CHLOROFORM]",
    "MEASUREMENT_TYPE": "EF (air/water)",
    "RESULT": 6.6
  }
]

----------
# EF (air/water) per entry
assay: Enrichment (partitioning from water to air in segmented flow), enrichment factor; assay type: physicochemical; conditions: calculated enrichment factor
MEASUREMENT_TYPE: EF (air/water)

[
  {
    "COMPOUND": "C=C(Cl)Cl [[…]]",
    "MEASUREMENT_TYPE": "EF (air/water)",
    "NUMERIC_VALUE": 12
  },
  {
    "COMPOUND": "ClC(Cl)(Cl)Cl [CARBON TETRACHLORIDE]",
    "MEASUREMENT_TYPE": "EF (air/water)",
    "NUMERIC_VALUE": 7.7
  },
  {
    "COMPOUND": "Cl/C=C/Cl [t-1,2-DICHLOROETHYLENE]",
    "MEASUREMENT_TYPE": "EF (air/water)",
    "NUMERIC_VALUE": 16
  },
  {
    "COMPOUND": "Clc1ccccc1 [CHLOROBENZENE]",
    "MEASUREMENT_TYPE": "EF (air/water)",
    "NUMERIC_VALUE": 4.0
  },
  {
    "COMPOUND": "ClCC(Cl)Cl [1,1,2-TRICHLOROETHANE]",
    "MEASUREMENT_TYPE": "EF (air/water)",
    "NUMERIC_VALUE": 3.9
  },
  {
    "COMPOUND": "BrC(Br)Br [BROMOFORM]",
    "MEASUREMENT_TYPE": "EF (air/water)",
    "NUMERIC_VALUE": 2.0
  },
  {
    "COMPOUND": "ClCCCl [1,2-DICHLOROETHANE]",
    "MEASUREMENT_TYPE": "EF (air/water)",
    "NUMERIC_VALUE": 6.8
  }
]

Values from patent US5235843A
